Test system: LXFL 529 NSCLC
run-description: NCI tumour cell line growth inhibition, 48 h
parameter: TGI (µM)
Answer with a number only, understood to be in µM.

[
  {
    "compound": "NS(=O)(=O)c1ccc(NC(=O)Cc2nc3ccccc3s2)cc1",
    "units-symbol": "µM",
    "TGI": 30.7
  }
]

Kindly review the next compound as well.
# input compound: CCOC(=O)C1=C(C)NC2=C(C(=O)N(c3ccccc3)C2c2ccccc2)C1c1ccccc1 (centres undefined) ; wanted: its TGI
30.3

* * *

System: OVCAR-4 ovarian
run-description: NCI tumour cell line growth inhibition, 48 h
parameter: TGI

[
  {
    "compound": "COc1cc(/C=N/c2nc3cc4sc(/N=C/c5cc(OC)c(OC)c(OC)c5)nc4cc3s2)cc(OC)c1OC",
    "parameter": "TGI",
    "assay-result": "> 100 µM"
  }
]

Please state recorded TGI (tested on OVCAR-4 ovarian) of CC(=O)OCCOCNC(=S)N/N=C/c1cc([N+](=O)[O-])ccc1O
> 100 µM

Tell me reported TGI for COc1ccc2c(=O)cc(-c3ccc(OC)c(OC)c3OC)oc2c1 , tested with OVCAR-4 ovarian.
> 100 µM

* * *

System: RPMI-8226 leukemia
run-description: NCI tumour cell line growth inhibition, 48 h
parameter: TGI

Below are worked cases with known answers.
[
  {
    "molecule": "N#Cc1c(NC(=O)c2ccc(F)cc2)sc2c1CCCC2",
    "target": "RPMI-8226 leukemia",
    "assay-result": "> 25 µM"
  },
  {
    "molecule": "CC(C)(C)c1cc(/C=N/NC(=O)c2ccccc2NC(=O)c2cccs2)c(O)c(C(C)(C)C)c1",
    "target": "RPMI-8226 leukemia",
    "assay-result": "14 µM"
  }
]

For N#CC1=C2SCCN2C(=O)C(C#N)C12CCCCC2 (stereo unspecified) , what is its reported TGI?
> 100 µM

For the molecule shown here, CCCCN1C(=O)c2c(Br)sc(Br)c2C1=O , give the reported TGI.
> 100 µM

Entry O=C(NCCCNCCN1C(=O)c2cccc3cc([N+](=O)[O-])cc(c23)C1=O)c1cc(-c2ccccc2)nc2ccccc12 has what TGI?
7.66 µM

If you can, please state the reported TGI value of CNC(=O)C1(C#N)C(c2ccccc2)C(C#N)(C(=O)NC)C1c1ccccc1 (stereo unspecified) .
> 100 µM

* * *

System: UACC-257 melanoma
run-description: NCI tumour cell line growth inhibition, 48 h
parameter: TGI

Please review the following examples before continuing.
[
  {
    "compound": "C=C1C(=O)O[C@H]2[C@H](OC(C)=O)[C@@H](C)CCCC3(C)OC3CCC3(CO3)[C@H](O)C[C@@H]12 (stereo partly specified)",
    "TGI": "49.9 µM"
  },
  {
    "compound": "COc1cccc(/C=C/C(=O)c2sc(C(N)=S)nc2C)c1O",
    "TGI": "> 100 µM"
  },
  {
    "compound": "Cc1ccc(Cc2nn(C)c(=O)n2N)cc1",
    "TGI": "> 100 µM"
  },
  {
    "compound": "CC(=O)Nc1ccc(-c2nnc(SCC(=O)Nc3cccc(Cl)c3)o2)cc1",
    "TGI": "43.6 µM"
  },
  {
    "compound": "O=C(O)CC(NC(=O)/C(=C/c1ccccc1)NC(=O)c1ccccc1)C(=O)O (stereo unspecified)",
    "TGI": "> 100 µM"
  },
  {
    "compound": "Nc1ccc(O)c2c1C(=O)c1c(N)ccc(O)c1C2=O",
    "TGI": "> 100 µM"
  }
]

Entry under review: Cc1[nH]c2ccccc2c1CC/C(=N\Nc1ccccc1)c1ccccc1 . Reported TGI?
> 100 µM

Which TGI reading was recorded for the compound O=C(NCCC1CN(C(=O)OCc2ccccc2)c2ccccc21)OCc1ccccc1 (stereo unspecified) ?
> 100 µM

GET /values?readout=TGI&item= C/C(N)=C/C(=O)c1[nH]c(C(=O)O)cc1C1CCN(Cc2ccccc2)C1=O (stereo unspecified)
78.5 µM

Field request: TGI | item: CCCCN1C(=O)c2c(Br)sc(Br)c2C1=O
> 100 µM

Find the recorded TGI belonging to Cc1cnc2oc3ccc(O)cc3c2c1-c1ccccc1 and report it.
> 100 µM

* * *

Examples of compounds with documented TGI follow.
Tested on: KM12 colon
run-description: NCI tumour cell line growth inhibition, 48 h

Example entries and their recorded answers appear below.
[
  {
    "compound": "CNC1c2ccccc2C(=O)c2cc3c(cc21)OCCOCCOCCOCCO3 (stereo unspecified)",
    "TGI": "> 100 µM"
  },
  {
    "compound": "COc1cc(-c2nc3sc(C)cn3c2/C=C2\\C(=O)Nc3ccccc32)c(Br)c(OC)c1OC",
    "TGI": "49.5 µM"
  },
  {
    "compound": "C=C1C(=O)O[C@@H]2/C=C(\\C)CC/C=C(\\C)CC[C@@]12O",
    "TGI": "25 µM"
  },
  {
    "compound": "CC(=O)OCCOCNC(=S)N/N=C/c1cc([N+](=O)[O-])ccc1O",
    "TGI": "> 100 µM"
  },
  {
    "compound": "CN(C)CCC(CCN(C)C)=NO",
    "TGI": "> 100 µM"
  },
  {
    "compound": "O=C1OC(C2Cc3ccc4c(c3C2=O)CCC4)c2ccccc21 (stereo unspecified)",
    "TGI": "> 100 µM"
  },
  {
    "compound": "CC(C)(c1ccccc1)c1cc(O)c(C(C)(C)c2ccccc2)cc1O",
    "TGI": "10.8 µM"
  },
  {
    "compound": "O=C(/C=C/c1ccccc1O)c1ccc([N+](=O)[O-])cc1",
    "TGI": "40.4 µM"
  }
]

Give the measured TGI of CC1(C)C2CCC1(C)C(OC(=O)/C=C/C(=O)OC1CC3CCC1(C)C3(C)C)C2 (stereo unspecified) .
> 100 µM

For the compound Oc1[nH]c(=S)[nH]c1/C=C1/C(c2ccccc2)=Nc2ccccc21 , what TGI is on record?
29.3 µM

Would you mind telling me what TGI value was observed for CC(=O)Nc1ccc(-c2nnc(SCC(=O)Nc3cccc(Cl)c3)o2)cc1 ?
30.8 µM

* * *

Test system: HOP-62 NSCLC
run-description: NCI tumour cell line growth inhibition, 48 h
// reported TGI for each item listed

Study these solved cases before continuing.
[
  {
    "compound": "CC(=O)Nc1cccc(N2C(=O)/C(=C\\c3cccc(Oc4ccccc4)c3)S(=O)(=O)C2c2ccccc2)c1 (centres undefined)",
    "target": "HOP-62 NSCLC",
    "TGI": "> 100 µM"
  },
  {
    "compound": "CSc1ccc2c(cc1=O)[C@@H](NC(=O)c1ccc(Cl)cc1)CCc1cc(O)c(O)c(O)c1-2",
    "target": "HOP-62 NSCLC",
    "TGI": "> 100 µM"
  },
  {
    "compound": "Oc1ccc2c3c1OC1c4[nH]ncc4C[C@H]4[C@@H](C2)N(CC2CC2)CC[C@]314 (some centres undefined)",
    "target": "HOP-62 NSCLC",
    "TGI": "> 100 µM"
  }
]

// lookup TGI | system=HOP-62 NSCLC | key= CC(c1ccc2c(c1)CCC1C2CC2OC23CC=CC(=O)[C@]13C)C1C[C@]2(C)O[C@]2(C)[C@H](O)O1 (some centres undefined)
40.3 µM

* * *

Test system: MCF7 breast
run-description: NCI tumour cell line growth inhibition, 48 h; in the data active means GI50 below about 0.43 µM; inactive means the rest
// allowed return values: active, inactive

Take a look at these entries with their results.
[
  {
    "molecule": "N#Cc1c(NC(=O)c2ccc(F)cc2)sc2c1CCCC2",
    "target": "MCF7 breast",
    "label": "inactive"
  },
  {
    "molecule": "C#Cc1cccc(Nc2ncnc3ccc(OCCCCNCCS(C)(=O)=O)cc23)c1",
    "target": "MCF7 breast",
    "label": "inactive"
  },
  {
    "molecule": "COc1cc([N+](=O)[O-])c(OC)cc1-c1nc2sc(C)cn2c1/C(N)=N/C(=N)N",
    "target": "MCF7 breast",
    "label": "inactive"
  },
  {
    "molecule": "COC1=C(C)C(=O)c2c(c(CCCl)c3n2CCC3OC(C)=O)C1=O (stereo unspecified)",
    "target": "MCF7 breast",
    "label": "active"
  },
  {
    "molecule": "Cn1cc(C2=C(c3cn(-c4ccccc4)c4ccccc34)C(=O)NC2=O)c2ccccc21",
    "target": "MCF7 breast",
    "label": "inactive"
  }
]

Please examine the following record next.
Recorded test call requested for O=C(C=P(c1ccccc1)(c1ccccc1)c1ccccc1)CCl
active
